# credit: patent US11034725B2

Molecular target: PCSK9Δhelix (Homo sapiens, UniProt Q8NBP7)
Construct: Human PCSK9 construct M1-Q692 with an engineered TEV site (residue deletion Y166, R167); made in house; host or cells: CHO
Sequence (Q8NBP7 with tags, fused parts or gaps limits assumed): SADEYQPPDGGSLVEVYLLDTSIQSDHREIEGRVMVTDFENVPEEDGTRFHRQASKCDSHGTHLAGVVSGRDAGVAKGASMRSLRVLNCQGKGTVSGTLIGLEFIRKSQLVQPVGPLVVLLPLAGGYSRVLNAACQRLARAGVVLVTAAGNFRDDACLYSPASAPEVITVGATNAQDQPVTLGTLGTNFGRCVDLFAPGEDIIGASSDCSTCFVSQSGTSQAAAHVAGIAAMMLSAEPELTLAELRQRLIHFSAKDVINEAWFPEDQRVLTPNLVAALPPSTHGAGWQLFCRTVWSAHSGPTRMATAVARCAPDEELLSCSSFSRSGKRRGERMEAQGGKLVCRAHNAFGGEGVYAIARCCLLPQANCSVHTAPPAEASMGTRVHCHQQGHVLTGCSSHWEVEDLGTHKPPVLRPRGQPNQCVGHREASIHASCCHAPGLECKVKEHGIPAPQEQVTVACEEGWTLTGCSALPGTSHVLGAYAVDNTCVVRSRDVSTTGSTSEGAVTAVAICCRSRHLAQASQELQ
Sequence (Q8NBP7 31-152 partner limits assumed): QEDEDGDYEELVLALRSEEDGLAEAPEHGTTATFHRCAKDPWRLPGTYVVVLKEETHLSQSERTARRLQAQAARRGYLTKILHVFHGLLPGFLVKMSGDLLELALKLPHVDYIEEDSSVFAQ
Assay: PCSK9Δhelix/Ab20 TR-FRET binding assay
Settings: TR-FRET; Table 8D, disulfide-cyclized extension peptides; read-out: PCSK9Δhelix/Ab20 IC50
pIC50: −log10 of the molar value. Bridge positions count the residues as written; N and C are the ends. Square brackets hold non-standard residues; d marks the D form. Peptide text beside a SMILES is read from it. Ahx = NCCCCCC(=O)O
Classification field: enter yes for pIC50 values not below 5, no for values below it.

compound	labelValue
CC[C@H](C)[C@@H]1NC(=O)[C@H](CCCNC(=N)N)NC(=O)[C@H](CCC(N)=O)NC(=O)[C@H](CC(C)C)NC(=O)[C@H](CC(N)=O)NC(=O)[C@H](Cc2c[nH]c3ccccc23)NC(=O)[C@@H]2CCCN2C(=O)[C@H]([C@@H](C)CC)NC(=O)[C@H](Cc2ccccc2)NC(=O)[C@@H](NC(C)=O)CSSC[C@@H](C(N)=O)NC(=O)[C@H](CC(C)C)NC(=O)[C@H](CC(C)C)NC(=O)CNC1=O [Compound 31] (Ac-CFIPWNLQRIGLLC-NH2; disulfide 1-14)	yes
CC[C@H](C)[C@@H]1NC(=O)[C@H](CCCNC(=N)N)NC(=O)[C@H](CCCCN)NC(=O)[C@H](CC(C)C)NC(=O)[C@H](CC(N)=O)NC(=O)[C@H](Cc2c[nH]c3ccccc23)NC(=O)[C@@H]2CCCN2C(=O)[C@H](CC(C)C)NC(=O)[C@H](CCCNC(=N)N)NC(=O)[C@@H](NC(C)=O)CSSC[C@@H](C(N)=O)NC(=O)[C@@H]2CCCN2C(=O)[C@H](CC(C)C)NC(=O)CNC1=O [Compound 67] (Ac-CRLPWNLKRIGLPC-NH2; disulfide 1-14)	yes
CC[C@H](C)[C@@H]1NC(=O)[C@H](CCCNC(=N)N)NC(=O)[C@H](CCC(N)=O)NC(=O)[C@H](CC(C)C)NC(=O)[C@H](CC(N)=O)NC(=O)[C@H](Cc2c[nH]c3ccccc23)NC(=O)[C@@H]2CCCN2C(=O)[C@H](C)NC(=O)[C@H](CCCNC(=N)N)NC(=O)[C@@H](NC(C)=O)CSSC[C@@H](C(N)=O)NC(=O)[C@@H]2CCCN2C(=O)[C@H](CC(C)C)NC(=O)CNC1=O [Compound 78] (Ac-CRAPWNLQRIGLPC-NH2; disulfide 1-14)	yes
CC[C@H](C)[C@@H]1NC(=O)[C@H](CCCNC(=N)N)NC(=O)[C@H](CCC(N)=O)NC(=O)[C@H](CC(C)C)NC(=O)[C@H](CC(N)=O)NC(=O)[C@H](Cc2c[nH]c3ccccc23)NC(=O)[C@@H]2CCCN2C(=O)[C@H](CC(C)C)NC(=O)[C@H](CCCNC(=N)N)NC(=O)[C@@H](NC(C)=O)CSSC[C@@H](C(N)=O)NC(=O)CCCCCNC1=O [Compound 116] (Ac-CRLPWNLQRI[Ahx]C-NH2; disulfide 1-12)	no
